- System: 843126-344-R-J1-PDC complex spheroid viability;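 also: spheroids exposed to drugs for seven days before readout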
- method description: Anticancer human tumor 843126-344-R-J1-PDC patient-derived melanoma cell line growth inhibition [POLQ]
- condition info: second compound 0.0316 µM; first compound 0.1 µM; stronger effect = lower value
measure: viability, T/C (%)
Numbers only here, please. The scale is %.

The cases that follow already have their viability, T/C on record.
# compound, viability, T/C / %
records = [
    ("CC1COCCN1c1cc(C2(O)CC3CCC(C2)O3)c2cnn(-c3ccn[nH]3)c2n1 (stereo unspecified) + Nc1ccc(C#CCN(C(=O)Cc2ncc(C(F)(F)F)cc2C(F)(F)F)c2ccc(F)cc2)nn1", 65.4),
    ("O=c1[nH]cc(F)c(=O)[nH]1 + COC1C(OC(N)=O)C(O)C(Oc2ccc3c(O)c(NC(=O)c4ccc(O)c(CC=C(C)C)c4)c(=O)oc3c2C)OC1(C)C", 76.6),
]

Which value of viability, T/C has been reported for O=C(Nc1ccc(O)c(NS(=O)(=O)c2ccc(F)cc2)c1)c1ccc(-c2ccccc2)cc1 + COC1C(OC(N)=O)C(O)C(Oc2ccc3c(O)c(NC(=O)c4ccc(O)c(CC=C(C)C)c4)c(=O)oc3c2C)OC1(C)C in the records?
105

Which value of viability, T/C has been reported for O=C(c1cc(Cc2n[nH]c(=O)c3ccccc23)ccc1F)N1CCN(C(=O)C2CC2)CC1 + Cc1cccc(N(C)C(=O)C2C(O)CCN2c2nc(C)cc(C(F)(F)F)c2C#N)c1 in the records?
99.2

Which value of viability, T/C has been reported for O=C(Nc1ccc(O)c(NS(=O)(=O)c2ccc(F)cc2)c1)c1ccc(-c2ccccc2)cc1 + Cc1cccc(N(C)C(=O)C2C(O)CCN2c2nc(C)cc(C(F)(F)F)c2C#N)c1 in the records?
95.2

Which value of viability, T/C has been reported for COc1cccc(OCCCN)c1-c1cc(Nc2cnc(C#N)cn2)n[nH]1 + Nc1ccc(C#CCN(C(=O)Cc2ncc(C(F)(F)F)cc2C(F)(F)F)c2ccc(F)cc2)nn1 in the records?
47.3
